Reference source: the kinase profiling compilation of Christmann-Franck et al. (2016)

target.system: PAK7 (human) (UniProt Q9P286)
Sequence (Q9P286 whole entry, looked up): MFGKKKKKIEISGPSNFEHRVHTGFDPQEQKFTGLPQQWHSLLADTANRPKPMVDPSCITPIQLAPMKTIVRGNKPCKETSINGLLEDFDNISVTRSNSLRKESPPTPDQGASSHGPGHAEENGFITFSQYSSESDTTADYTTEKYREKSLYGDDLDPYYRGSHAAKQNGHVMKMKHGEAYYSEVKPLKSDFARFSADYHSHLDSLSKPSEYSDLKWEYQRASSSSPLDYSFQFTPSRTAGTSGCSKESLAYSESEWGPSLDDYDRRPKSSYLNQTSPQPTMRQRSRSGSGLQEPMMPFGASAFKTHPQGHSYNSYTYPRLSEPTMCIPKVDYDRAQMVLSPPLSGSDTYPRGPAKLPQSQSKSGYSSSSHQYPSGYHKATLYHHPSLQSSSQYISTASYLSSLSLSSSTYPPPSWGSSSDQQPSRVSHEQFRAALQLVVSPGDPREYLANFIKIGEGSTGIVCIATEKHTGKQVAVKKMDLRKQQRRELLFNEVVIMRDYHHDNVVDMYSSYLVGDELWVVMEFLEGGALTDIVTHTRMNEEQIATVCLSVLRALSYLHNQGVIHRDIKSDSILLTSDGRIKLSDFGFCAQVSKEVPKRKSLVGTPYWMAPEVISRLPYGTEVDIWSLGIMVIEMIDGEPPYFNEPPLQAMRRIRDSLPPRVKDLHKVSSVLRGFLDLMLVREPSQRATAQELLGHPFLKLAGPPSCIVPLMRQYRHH
measurement.protocol: radiometric filter-binding kinase assay
experimental.conditions: compound 1.0 µM
measure.name: residual activity (%)

[[record]]
compound = "O=C1NC(=S)N[C@@H]1Cc1c[nH]c2ccccc12"
scale_unit = "%"
reported_measurement = 97

[[record]]
compound = "O=C(Nc1ccccc1-c1cn2c(CN3CCNCC3)csc2n1)c1cnc2ccccc2n1"
scale_unit = "%"
reported_measurement = 91

[[record]]
compound = "c1ccc2c(-c3cnn4cc(-c5ccc(N6CCNCC6)cc5)cnc34)ccnc2c1"
scale_unit = "%"
reported_measurement = 82

[[record]]
compound = "Cn1nc(Nc2ccc(F)cc2)c2c(N)ncnc21"
scale_unit = "%"
reported_measurement = 109

[[record]]
compound = "O=C(NOCC(O)CO)c1ccc(F)c(F)c1Nc1ccc(I)cc1Cl (stereo not drawn)"
scale_unit = "%"
reported_measurement = 102

[[record]]
compound = "O=C(N[C@@H](COc1ccc2[nH]c(=O)[nH]c2c1)c1ccccc1)c1cccn(Cc2ccc(F)c(F)c2)c1=O"
scale_unit = "%"
reported_measurement = 92

[[record]]
compound = "NC1(c2ccc(-c3nc4ccn5c(=O)[nH]nc5c4cc3-c3ccccc3)cc2)CCC1"
scale_unit = "%"
reported_measurement = 96

[[record]]
compound = "C=CC(=O)N1CCC[C@@H](n2nc(-c3ccc(Oc4ccccc4)cc3)c3c(N)ncnc32)C1"
scale_unit = "%"
reported_measurement = 97

[[record]]
compound = "Oc1ccc2ccccc2c1SSc1c(O)ccc2ccccc12"
scale_unit = "%"
reported_measurement = 99

[[record]]
compound = "NCC(=O)Nc1ccc(-n2nc(C(F)(F)F)cc2-c2ccc3c(ccc4ccccc43)c2)cc1"
scale_unit = "%"
reported_measurement = 87

[[record]]
compound = "NC(=O)c1c(NC(=O)C2CC2)sc2c1CCCC2"
scale_unit = "%"
reported_measurement = 100

[[record]]
compound = "Cc1cccc(Nc2nn(C)c3ncnc(N)c23)c1"
scale_unit = "%"
reported_measurement = 139

[[record]]
compound = "Oc1ccc(/C=C/c2cc(O)cc(O)c2)cc1"
scale_unit = "%"
reported_measurement = 102


====

target.system: UniProt:P04629
Sequence (P04629 whole entry, looked up): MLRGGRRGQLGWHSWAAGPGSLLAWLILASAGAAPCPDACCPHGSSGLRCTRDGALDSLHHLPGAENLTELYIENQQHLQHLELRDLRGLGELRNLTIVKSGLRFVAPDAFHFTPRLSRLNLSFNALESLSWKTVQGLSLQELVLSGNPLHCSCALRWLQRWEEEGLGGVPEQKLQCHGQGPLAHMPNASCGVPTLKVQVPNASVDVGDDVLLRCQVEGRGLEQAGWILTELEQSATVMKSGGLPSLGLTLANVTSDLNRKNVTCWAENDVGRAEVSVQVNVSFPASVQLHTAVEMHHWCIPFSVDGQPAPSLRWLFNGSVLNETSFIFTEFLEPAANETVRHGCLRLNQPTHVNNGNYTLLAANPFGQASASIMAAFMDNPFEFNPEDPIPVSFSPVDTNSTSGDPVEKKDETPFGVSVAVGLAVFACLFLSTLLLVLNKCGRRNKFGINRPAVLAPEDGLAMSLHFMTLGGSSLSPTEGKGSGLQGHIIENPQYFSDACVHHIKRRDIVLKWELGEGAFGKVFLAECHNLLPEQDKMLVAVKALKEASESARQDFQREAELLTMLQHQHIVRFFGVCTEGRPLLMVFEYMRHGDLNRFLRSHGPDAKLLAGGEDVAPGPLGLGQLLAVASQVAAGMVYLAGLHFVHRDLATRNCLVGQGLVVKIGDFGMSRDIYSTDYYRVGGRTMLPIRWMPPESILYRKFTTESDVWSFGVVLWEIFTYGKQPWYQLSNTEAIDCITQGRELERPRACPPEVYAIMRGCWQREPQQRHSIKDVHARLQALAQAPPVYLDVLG
measurement.protocol: radiometric filter-binding kinase assay
experimental.conditions: compound 1.0 µM
measure.name: residual activity (%)

[1] COc1cc(C(=O)N2CCOCC2)c(F)cc1Nc1ncc(C(F)(F)F)c(NC2CC2)n1
[2] Cc1ccc(=O)n(-c2ccccc2)c1
[3] COc1cc(O)c2c(c1)/C=C/C[C@H](O)[C@H](O)C(=O)/C=C\C[C@H](C)OC2=O
Challenge: Reorder the records above by residual activity so that values decrease. Sort and list the labels as requested.
Response given: 2, 1, 3

====

target.system: PHKG1 (human)
measurement.protocol: radiometric filter-binding kinase assay
experimental.conditions: compound 1.0 µM
measure.name: residual activity (%)

Field: example entries. Status: answers known.
[[record]]
compound = "CN(C)C/C=C/C(=O)Nc1cccc(C(=O)Nc2ccc(Nc3nccc(-c4cccnc4)n3)cc2)c1"
target_system = "PHKG1 (human)"
measure_name = "residual activity"
reported_measurement = 83

[[record]]
compound = "Cc1ccc(=O)n(-c2ccccc2)c1"
target_system = "PHKG1 (human)"
measure_name = "residual activity"
reported_measurement = 103

[[record]]
compound = "O=C1NC(=S)N[C@@H]1Cc1c[nH]c2ccccc12"
target_system = "PHKG1 (human)"
measure_name = "residual activity"
reported_measurement = 95


[a] Cc1cccc(Nc2nn(C)c3ncnc(N)c23)c1
[b] CNC(=O)C1[C@H]2O[C@@](C)([C@@H]1N)n1c3ccccc3c3c4c(c5c6ccccc6n2c5c31)C(=O)NC4 (stereo partly specified)
Challenge: Higher residual activity between a and b ? Use the label to indicate which entry you chose.
Response given: a
(a: 106%, b: 1%)
